# maps each entry to its growth inhibition
test_details: NCI Yeast Anticancer Drug Screen. Data for the cln2 rad14 strain (AID 165);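 note: 0% = growth equal to vehicle treated cultures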
experimental_setup: S. cerevisiae cln2 rad14 strain, at 50.0 µM, active compounds read high
This is part of a sample that, as a whole, favours compounds with a hit. Of some 79,000 tested, about 15% had one in any assay.
measurement_kind: growth inhibition (%)

- CC(/C=C/C1OC(=O)C=CC1C)=C\C(C)C/C=C/C(C)=C/C(CO)C(=O)C(C)C(O)C(C)C/C(C)=C/C(=O)O (stereo unspecified): 62.6
- S=P12OCCC(CO1)O2 (stereo unspecified): -23.8
- CC(=O)CC(C)=O.CC(=O)CC(C)=O.[Co]: -133
- O=C(O)Cc1ccc2c(c1)OCO2: 12.2
- O=C(NC1=NN(Cc2ccccc2)C(=O)C1)c1ccc(S(=O)(=O)F)cc1: 9.55
- Cc1cc(C)cc(OP(=O)(Oc2cc(C)cc(C)c2)Oc2cc(C)cc(C)c2)c1: -3.65
- CC(=O)[CH-]C(C)=O.O=[N+]([O-])O.[NH-]C1CCCCC1[NH-].[Pt+4] (stereo unspecified): 98
- O=C(O)C(O)(c1ccccc1)c1ccsc1 (stereo unspecified): -28.9
- O=P(Oc1ccccc1)(N1CCCC1)N1CCCC1: 18.1
- CC1=CC(=Nc2ccc(N(CCCl)CCCl)cc2)C=CC1=O: 14.2
- O=[N+]([O-])c1ccc(/C=C/c2cc(Cl)ccc2S(=O)(=O)F)c(Cl)c1: 13.4
- COc1cc2c(c(OC)c1OC)CC1c3c(cc4c(c3-2)OCO4)CCN1C (stereo unspecified): 13.7
- CN(C)C(=S)Oc1cc(Cl)c(S(=O)(=O)F)cc1Cl: 95.8
- c1ccc(N2CCN(c3ccccc3)CC2)cc1: -57.5
- CCOP(=O)(OCC)C(N)Cc1c[nH]c2ccccc12 (stereo unspecified): 16.4
- CC[N+](CC)(CC)CC.[C-]#[O+].[C-]#[O+].[C-]#[O+].[Cr+4].[c-]1[c-][c-][cH-][c-]1: -10.8
- COc1ccc2c3c1OC1C(OC)(OC)CC4(C=C2)CN(C)CCC314 (stereo unspecified): -11.4
- O=P(O)(O)SP(=O)(O)O.[Zn+2]: -8.7
- O=C1NCN(c2ccccc2)C12CCN(CCCS(=O)(=O)c1ccccc1)CC2: -22.6
- C=CC1CN2CCC1CC2C(O)c1ccnc2ccccc12 (stereo unspecified): 10.9
- O=P1(c2ccccc2)CCCCN1 (stereo unspecified): -20.9

----------
test_details: NCI Yeast Anticancer Drug Screen. Data for the mlh1 rad18 strain (AID 175)
experimental_setup: S. cerevisiae mlh1 rad18 strain growth inhibition; at 50.0 µM; active compounds read high
About 79,000 compounds went through this panel and 15% of them were active in at least one assay; those are over-represented in the sample as a whole.
# maps each entry to its growth inhibition
measurement_kind: growth inhibition (%)

* CCNc1ccc([N+](=O)[O-])cc1[N+](=O)[O-] | 5.9
* CC(C)c1cc2c(c(O)c1O)[C@@]1(C(=O)O)CCCC(C)(C)[C@@H]1CC2 | 92.3
* CCCCN(CCCC)CC(O)c1cc(Cl)c(Cl)cc1C (centres undefined) | 25.3
* CCN(CC)CCn1c(=O)n(C)c2ccccc21 | 20.9
* Cc1cc(S(=O)(=O)F)ccc1O | -1.3
* COc1ccc(C)cc1C(CC(=O)O)CC(=O)N(CCCl)CCCl (centres undefined) | 21.6
* CCOC(OC1=C(C#N)CCCC1)C(C)[Se]c1ccccc1 (centres undefined) | 34
* COC(=O)/C=C/c1ccc(Cl)cc1 | -7.4
* BrCC[N+]12CCCN1CCC2 | -31.3
* COc1cc(N(CCCl)CCCl)c(OC)cc1C=Nc1cccc(Cl)c1 | 34.2
* CC(N)C(=O)c1ccccc1 (centres undefined) | 1.25
* O=[N+]([O-])/C=C\c1c[nH]c2ccc(OCc3ccccc3)cc12 | 40.9
* O=C1NC(=S)NC(=O)C1=Cc1cc2c(cc1[N+](=O)[O-])OCO2 | -7.8
* CCOP(=S)(OCC)Oc1ccc2c(c1)OC(=O)C1(Cl)C2(C)C2(Cl)C(=O)Oc3cc(OP(=S)(OCC)OCC)ccc3C12C (centres undefined) | 1.45
* CC(=O)[O][Hg][c]1cc[c]([Hg])s1 | 99.2
* CN(C)C(=O)Sc1c(Cl)cc(Cl)cc1S(=O)(=O)F | 20.6
* N.N.N.N.O=C([O-])C(Cl)Cl.O=C([O-])C(Cl)Cl.[Co+3].[O-][Cl+3]([O-])([O-])[O-] | -13.6
* C=C1OC(OC)CC(N=[N+]=[N-])C1O (centres undefined) | -15.6
* CS(=O)(=O)NC(=O)CBr | -21.1
* CC1=C(\C=C/C(C)=C/C=C/C(C)=C/C=C/C=C(C)\C=C\C=C(C)/C=C/C2=C(C)CCCC2(C)C)C(C)(C)CCC1 | 45.5
* Nc1nc(N)c(N)c(N)n1 | 34.2
* Cc1cccc2c1[se]c1ccccc12 | -17.1
* [C-]#[O+].[C-]#[O+].[C-]#[O+].[C-]#[O+].[Cr].c1ccc([As](CC[As](c2ccccc2)c2ccccc2)c2ccccc2)cc1 | 29.1
* CN(C)c1ccc(C=C2C(=O)NC(=O)NC2=O)cc1 | 9.65
* CN1C(=O)C2(c3ccccc31)C1CC3C(CO1)C1C2C3(CO)CN1C#N (centres undefined) | -6.8
* CCC1C(=O)NC(=O)N(c2ccccc2)C1=O (centres undefined) | -6
* [C-]#[N+]CS(=O)(=O)c1ccc(C)cc1 | 1.4
* CC(C)=CCC/C(C)=N\N=C(N)N | -15.6
* NC(Cc1ccc(O)c(F)c1)C(=O)O (centres undefined) | -14.3
* O=C(O)CP(=S)(S)c1ccccc1 (centres undefined) | -39.5
* CC1CC(C)OP(Oc2ccccc2)O1 (centres undefined) | -10.5
* COc1ccc(CC(C)=O)cc1OC | -5.9
* COc1ccc2[nH]c3c(c2c1)CCNC3C (centres undefined) | -17.3
* CO[C@@]12[C@H](COC(N)=O)C3=C(C(=O)C(C)=C(NCCO)C3=O)N1C[C@@H]1N[C@@H]12 | -7.45
* c1ccc2c(C3N4CCCN3CC4)c[nH]c2c1 (centres undefined) | 6.05
* Cc1ccc(NC(=O)N(C)N=O)cc1 | -4.45
* CS(=N)(=O)CCC(N)C(=O)O (centres undefined) (tested in a mixture with another compound) | 2.1
* CN(C)P(=O)(N(C)C)N(C)C (tested in a mixture with another compound) | -14.3
* COC(=O)COC1CC[CH-]CC1.[Cl-].[Cl-].[Cl-].[Cl-].[Cl-].[Sb+5].c1ccncc1 | 12.8

----------
test_details: NCI Yeast Anticancer Drug Screen. Data for the mec2-1 strain (AID 157)
experimental_setup: S. cerevisiae mec2-1 strain, at 50.0 µM
Method: Growth inhibition of yeast strains with defined genetic alterations is measured as a screen for potential anti-cancer activity. Selected strains with alterations in DNA damage repair or cell cycle control were exposed to compounds and growth inhibition was measured relative to vehicle treated controls. The strain used in this assay is mec2-1
About 79,000 compounds went through this panel and 15% of them were active in at least one assay; those are over-represented in the sample as a whole. Active and inactive are the calls of the source. Cut-off read from the data, not from the text of the source: active = growth inhibition above about 70%; inactive = the rest.
Classes used: 1 (yes) (active), 0 (no) (inactive)

* O[As](O)O.S=C(S)c1ccccc1S | 0 (no)
* C/C=C1\C[C@@H]2C(OC)Nc3cc(O)c(OC)cc3C(=O)N2C1 (some centres not stated) | 1 (yes)
* CC[As](=O)(O)c1ccc(OC)c(I)c1 | 0 (no)
* [C-]#[O+].[C-]#[O+].[C-]#[O+].[Cr].c1ccc(P(CC[PH+](CC[PH+](CC[PH+](c2ccccc2)c2ccccc2)c2ccccc2)c2ccccc2)c2ccccc2)cc1 (configuration not stated) | 0 (no)
* O=C1CN=C(c2ccccc2)c2cc(Cl)ccc2N1 | 0 (no)
* COc1ccc2[nH]cc(/C=C\[N+](=O)[O-])c2c1 | 0 (no)
* O=[N+]([O-])c1cccc([As](=O)(O)c2ccc(O)c([N+](=O)[O-])c2)c1 | 0 (no)
* CCCOP1(=O)C=C(O)C(Cl)=C(C)C1 (configuration not stated) | 0 (no)
* O=C(COc1cccc(Cl)c1)Nc1cccc(NC(=O)c2ccc(S(=O)(=O)F)cc2)c1 | 0 (no)
* O=C(c1ccccc1)N1CC(Cl)CN(C(=O)c2ccccc2)CC(Cl)C1 (configuration not stated) | 0 (no)
* O=c1[nH]c(=O)[nH]c(=O)[nH]1 | 0 (no)
* Clc1ccc(N=P(c2ccccc2)(c2ccccc2)c2ccccc2)cc1.[Cl][Cd][Cl] | 1 (yes)
* COc1ccccc1CN1CCN(Cc2ccccc2OC)C1c1ccc(N(CCCl)CCCl)cc1 | 0 (no)
* COc1ccc(S(=O)(=O)F)cc1NC(=O)CCc1ccc(N2C(N)=NC(N)=NC2(C)C)cc1Cl | 1 (yes)
* O=C(CC(=O)C(F)(F)F)c1cccs1 | 0 (no)
* CC(=O)C(=[N+]=[N-])C(=O)N(C)CCC#N | 0 (no)
* c1ccc(OP(Oc2ccccc2)(c2ccccc2)(c2ccccc2)c2ccccc2)cc1 | 0 (no)
* CCOC(=O)C(Br)CBr (configuration not stated) | 0 (no)
* CN1CCCC(O)(C(=O)c2ccccc2)C1 (configuration not stated) | 0 (no)
* Cc1ccc(S(=O)(=O)N/N=C(\CCN2CCCC2)CC(c2ccccc2)c2c(O)c3ccccc3oc2=O)cc1 (configuration not stated) | 0 (no)
* O=C1CCCN1CC#CCN1C[C@@H]2C3CCC(C3)[C@@H]2C1 | 0 (no)
* O=[N+]([O-])NC1=NCCN1CCCl | 0 (no)
* CC1=C(C)CN(CCc2c[nH]c3ccccc23)C(C#N)C1 (configuration not stated) | 0 (no)
* Cc1ccc(N)cc1 | 0 (no)
* Clc1cc2nncc(N3CC3)c2cc1Cl | 0 (no)
* Cc1ccc(O)cc1C | 0 (no)
* C[As+](C)(C)c1ccc(Br)c([N+](=O)[O-])c1 | 0 (no)
* COc1ccc(S(=O)(=O)F)cc1NC(=O)c1ccc2ccccc2c1O | 0 (no)
* O=[N+]([O-])c1cc(Cl)c(Cl)c([N+](=O)[O-])c1Cl | 0 (no)
* Nc1ncn[nH]1 | 0 (no)
* S=C=Nc1cccc2ccccc12 | 0 (no)
* COc1cc(N=Nc2ccc([N+](=O)[O-])cc2)ccc1N(CCCl)CCCl | 0 (no)
